Source: ChEMBL document CHEMBL1136301

Field: IC50. Provide a value for each of the molecules that follow.
Target: Human immunodeficiency virus type 1 protease (Human immunodeficiency virus 1, UniProt Q72874)

// query IC50 value for entry OC(C(COCc1ccccc1)OCc1ccc(C(F)(F)F)cc1)C(O)C(COCc1ccccc1)OCc1ccc(C(F)(F)F)cc1 (stereo not given)
10 µM

Please do the same for O=C(O)c1ccc(COCC(OCc2ccccc2)C(O)C(O)C(COCc2ccc(C(=O)O)cc2)OCc2ccccc2)cc1 (stereo not given) as well.
5 µM

Please do the same for O[C@@H]([C@H](O)[C@@H](Cc1ccccc1)OCc1ccccc1)[C@@H](Cc1ccccc1)OCc1ccccc1 as well.
> 50 µM

Please do the same for NCc1ccc(COC(COCc2ccccc2)C(O)C(O)C(COCc2ccccc2)OCc2ccc(CN)cc2)cc1 (stereo not given) as well.
27 µM

Please do the same for OC(C(COCc1ccccc1)OCc1c(F)cccc1F)C(O)C(COCc1ccccc1)OCc1c(F)cccc1F (stereo not given) as well.
6.4 µM

Please do the same for OC(C(COCc1cccc(F)c1)OCc1ccccc1)C(O)C(COCc1cccc(F)c1)OCc1ccccc1 (stereo not given) as well.
1.5 µM

Please do the same for OCc1ccc(COC(COCc2ccccc2)C(O)C(O)C(COCc2ccccc2)OCc2ccc(CO)cc2)cc1 (stereo not given) as well.
10 µM

Please do the same for N#Cc1ccc(COCC(OCc2ccc(C#N)cc2)C(O)C(O)C(COCc2ccc(C#N)cc2)OCc2ccc(C#N)cc2)cc1 (stereo not given) as well.
3.1 µM

Please do the same for OC(C(COCc1ccc(F)cc1)OCc1ccc(F)cc1)C(O)C(COCc1ccc(F)cc1)OCc1ccc(F)cc1 (stereo not given) as well.
1.6 µM

Please do the same for O[C@H]([C@H](O)[C@@H](COCc1ccccc1)OCc1ccccc1)[C@@H](COCc1ccccc1)OCc1ccccc1 as well.
> 50 µM

Please do the same for Cc1ccccc1COC(COCc1ccccc1F)C(O)C(O)C(COCc1ccccc1F)OCc1ccccc1C (stereo not given) as well.
0.8 µM

Please do the same for OCc1ccc(COCC(OCc2ccccc2)C(O)C(O)C(COCc2ccc(CO)cc2)OCc2ccccc2)cc1 (stereo not given) as well.
1.2 µM

Please do the same for COC(=O)c1ccc(COCC(OCc2ccccc2)C(O)C(O)C(COCc2ccc(C(=O)OC)cc2)OCc2ccccc2)cc1 (stereo not given) as well.
2 µM

Please do the same for OC(C(COCc1ccccc1)OCc1ccc(F)cc1)C(O)C(COCc1ccccc1)OCc1ccc(F)cc1 (stereo not given) as well.
0.7 µM

Please do the same for OC(C(COCc1ccccc1)OCc1ccc(Br)cc1)C(O)C(COCc1ccccc1)OCc1ccc(Br)cc1 (stereo not given) as well.
2.1 µM

Please do the same for OC(C(COCc1ccc(F)cc1F)OCc1ccccc1)C(O)C(COCc1ccc(F)cc1F)OCc1ccccc1 (stereo not given) as well.
4.2 µM

Please do the same for OC(C(COCc1ccccc1)OCc1ccccc1F)C(O)C(COCc1ccccc1)OCc1ccccc1F (stereo not given) as well.
3.7 µM

Please do the same for Cc1ccc(COC(COCc2ccccc2)C(O)C(O)C(COCc2ccccc2)OCc2ccc(C)cc2)cc1 (stereo not given) as well.
3.7 µM

Please do the same for O[C@@H]([C@H](OCc1ccccc1)[C@H](COCc1ccccc1)OCc1ccccc1)[C@@H](COCc1ccccc1)OCc1ccccc1 as well.
> 50 µM

Please do the same for O[C@@H]([C@H](O)[C@@H](COc1ccccc1)OCc1ccccc1)[C@@H](COc1ccccc1)OCc1ccccc1 as well.
> 50 µM

Please do the same for OC(C(COCc1ccccc1F)OCc1ccc(F)cc1)C(O)C(COCc1ccccc1F)OCc1ccc(F)cc1 (stereo not given) as well.
0.2 µM

Please do the same for O[C@H]([C@@H](O)[C@H](COCc1ccccc1)OCc1ccccc1)[C@H](COCc1ccccc1)OCc1ccccc1 as well.
> 50 µM

Please do the same for OC(C(COCc1ccccc1)OCc1ccc(F)cc1F)C(O)C(COCc1ccccc1)OCc1ccc(F)cc1F (stereo not given) as well.
2.6 µM

Please do the same for O[C@@H]([C@H](O)[C@@H](COCc1ccccc1)OCc1ccccc1)[C@@H](COCc1ccccc1)OCc1ccccc1 as well.
2.4 µM

Please do the same for OC(C(COCc1ccc(Cl)cc1)OCc1ccccc1)C(O)C(COCc1ccc(Cl)cc1)OCc1ccccc1 (stereo not given) as well.
5.2 µM

Please do the same for Cc1ccc(COCC(OCc2ccc(C)cc2)C(O)C(O)C(COCc2ccc(C)cc2)OCc2ccc(C)cc2)cc1 (stereo not given) as well.
7 µM

Please do the same for OC(C(COCc1ccccc1)OCc1ccc(Cl)cc1)C(O)C(COCc1ccccc1)OCc1ccc(Cl)cc1 (stereo not given) as well.
2 µM

Please do the same for Cc1ccc(COCC(OCc2ccccc2)C(O)C(O)C(COCc2ccc(C)cc2)OCc2ccccc2)cc1 (stereo not given) as well.
3 µM

Please do the same for O=C(O)c1ccc(COC(COCc2ccccc2)C(O)C(O)C(COCc2ccccc2)OCc2ccc(C(=O)O)cc2)cc1 (stereo not given) as well.
26 µM

Please do the same for N#Cc1ccc(COCC(OCc2ccccc2)C(O)C(O)C(COCc2ccc(C#N)cc2)OCc2ccccc2)cc1 (stereo not given) as well.
4.3 µM

Please do the same for N#Cc1ccc(COC(COCc2ccccc2)C(O)C(O)C(COCc2ccccc2)OCc2ccc(C#N)cc2)cc1 (stereo not given) as well.
5.4 µM

Please do the same for NC(=O)c1ccc(COC(COCc2ccccc2)C(O)C(O)C(COCc2ccccc2)OCc2ccc(C(N)=O)cc2)cc1 (stereo not given) as well.
20 µM

Please do the same for OC(C(COCc1ccccc1)OCc1cccc(F)c1)C(O)C(COCc1ccccc1)OCc1cccc(F)c1 (stereo not given) as well.
1.8 µM

Please do the same for OC(C(COCc1c(F)cccc1F)OCc1ccc(F)cc1)C(O)C(COCc1c(F)cccc1F)OCc1ccc(F)cc1 (stereo not given) as well.
0.33 µM

Please do the same for OC(C(COCc1ccc(F)cc1)OCc1ccccc1)C(O)C(COCc1ccc(F)cc1)OCc1ccccc1 (stereo not given) as well.
2.5 µM

---

# Human immunodeficiency virus type 1 protease (Human immunodeficiency virus 1): IC50 values follow
Kindly answer with a numeric value in µM, unit omitted.

// query IC50 value for entry OC(C(COCc1ccccc1F)OCc1ccccc1)C(O)C(COCc1ccccc1F)OCc1ccccc1 (stereo not drawn)
0.6

Please do the same for OC(C(COCc1ccc(C(F)(F)F)cc1)OCc1ccc(C(F)(F)F)cc1)C(O)C(COCc1ccc(C(F)(F)F)cc1)OCc1ccc(C(F)(F)F)cc1 (stereo not drawn) as well.
6

Please do the same for OC(C(COCc1ccc(Br)cc1)OCc1ccccc1)C(O)C(COCc1ccc(Br)cc1)OCc1ccccc1 (stereo not drawn) as well.
6

Please do the same for COC(=O)c1ccc(COC(COCc2ccccc2)C(O)C(O)C(COCc2ccccc2)OCc2ccc(C(=O)OC)cc2)cc1 (stereo not drawn) as well.
8.4

Please do the same for OC(C(COCc1ccc(C(F)(F)F)cc1)OCc1ccccc1)C(O)C(COCc1ccc(C(F)(F)F)cc1)OCc1ccccc1 (stereo not drawn) as well.
5

Please do the same for OC(C(COCc1c(F)cccc1F)OCc1ccccc1)C(O)C(COCc1c(F)cccc1F)OCc1ccccc1 (stereo not drawn) as well.
0.33
